The values you see were collected from patent US8546414B2.

# ASSAYED_TARGET: CaV2.2 (Homo sapiens, UniProt Q00975)
# Sequence (Q00975 whole entry): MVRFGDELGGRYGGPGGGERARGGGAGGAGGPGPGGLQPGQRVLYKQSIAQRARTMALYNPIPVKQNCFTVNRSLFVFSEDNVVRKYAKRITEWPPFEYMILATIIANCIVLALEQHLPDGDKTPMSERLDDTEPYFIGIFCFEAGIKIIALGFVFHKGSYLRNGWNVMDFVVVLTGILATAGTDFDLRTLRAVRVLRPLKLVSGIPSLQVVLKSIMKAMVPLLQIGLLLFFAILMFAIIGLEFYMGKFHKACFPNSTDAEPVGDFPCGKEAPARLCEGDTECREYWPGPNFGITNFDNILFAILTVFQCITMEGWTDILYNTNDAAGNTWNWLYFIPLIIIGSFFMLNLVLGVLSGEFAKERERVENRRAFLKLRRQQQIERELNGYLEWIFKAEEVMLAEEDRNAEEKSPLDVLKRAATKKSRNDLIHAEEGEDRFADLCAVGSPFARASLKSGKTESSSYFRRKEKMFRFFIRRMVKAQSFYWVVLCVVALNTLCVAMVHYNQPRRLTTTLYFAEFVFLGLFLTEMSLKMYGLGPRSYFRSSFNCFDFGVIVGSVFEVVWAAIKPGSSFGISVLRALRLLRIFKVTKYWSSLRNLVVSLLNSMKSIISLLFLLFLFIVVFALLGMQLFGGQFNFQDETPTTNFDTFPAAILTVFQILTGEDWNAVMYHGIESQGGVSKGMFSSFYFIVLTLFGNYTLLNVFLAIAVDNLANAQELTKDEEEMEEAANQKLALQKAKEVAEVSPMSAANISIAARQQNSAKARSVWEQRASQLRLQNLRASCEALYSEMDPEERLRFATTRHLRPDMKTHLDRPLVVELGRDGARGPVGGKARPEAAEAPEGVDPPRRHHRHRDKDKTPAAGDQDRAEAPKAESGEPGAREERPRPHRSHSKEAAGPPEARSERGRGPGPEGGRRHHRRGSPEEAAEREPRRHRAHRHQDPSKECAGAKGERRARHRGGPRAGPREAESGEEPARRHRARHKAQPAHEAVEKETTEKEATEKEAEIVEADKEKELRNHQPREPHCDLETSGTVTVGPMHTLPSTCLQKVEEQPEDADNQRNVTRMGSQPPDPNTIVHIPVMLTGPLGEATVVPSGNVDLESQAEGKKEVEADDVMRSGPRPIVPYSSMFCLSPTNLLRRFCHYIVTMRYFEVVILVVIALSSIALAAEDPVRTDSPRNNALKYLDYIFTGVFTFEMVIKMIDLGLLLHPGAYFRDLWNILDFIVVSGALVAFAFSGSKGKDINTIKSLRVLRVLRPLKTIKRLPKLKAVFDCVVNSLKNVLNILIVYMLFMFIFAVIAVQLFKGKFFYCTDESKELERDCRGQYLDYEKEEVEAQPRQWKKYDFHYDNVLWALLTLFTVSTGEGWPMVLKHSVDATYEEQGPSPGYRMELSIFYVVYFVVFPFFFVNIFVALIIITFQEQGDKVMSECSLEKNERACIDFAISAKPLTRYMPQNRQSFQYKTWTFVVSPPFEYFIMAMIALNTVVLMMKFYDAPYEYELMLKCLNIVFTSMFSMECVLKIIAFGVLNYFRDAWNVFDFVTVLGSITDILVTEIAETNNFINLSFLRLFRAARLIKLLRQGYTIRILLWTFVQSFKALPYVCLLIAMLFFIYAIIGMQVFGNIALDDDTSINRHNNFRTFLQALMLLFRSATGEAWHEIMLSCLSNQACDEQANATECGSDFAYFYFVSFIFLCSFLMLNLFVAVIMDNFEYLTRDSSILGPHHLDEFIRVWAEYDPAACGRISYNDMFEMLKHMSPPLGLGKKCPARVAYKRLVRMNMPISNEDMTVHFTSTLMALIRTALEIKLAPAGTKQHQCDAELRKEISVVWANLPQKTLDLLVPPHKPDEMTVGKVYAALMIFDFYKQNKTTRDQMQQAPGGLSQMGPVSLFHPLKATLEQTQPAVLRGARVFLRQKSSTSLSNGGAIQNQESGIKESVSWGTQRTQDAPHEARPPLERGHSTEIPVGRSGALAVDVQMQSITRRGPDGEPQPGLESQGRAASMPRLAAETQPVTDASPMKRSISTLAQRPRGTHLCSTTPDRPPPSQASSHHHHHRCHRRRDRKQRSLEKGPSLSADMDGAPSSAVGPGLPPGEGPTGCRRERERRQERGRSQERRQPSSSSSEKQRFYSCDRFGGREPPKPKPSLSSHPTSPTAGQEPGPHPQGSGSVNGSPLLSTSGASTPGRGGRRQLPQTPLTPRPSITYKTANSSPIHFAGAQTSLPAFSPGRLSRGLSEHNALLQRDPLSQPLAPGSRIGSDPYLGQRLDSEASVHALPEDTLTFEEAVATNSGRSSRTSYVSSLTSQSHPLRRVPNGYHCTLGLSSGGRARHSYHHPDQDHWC
# Sequence (P54284 whole entry partner): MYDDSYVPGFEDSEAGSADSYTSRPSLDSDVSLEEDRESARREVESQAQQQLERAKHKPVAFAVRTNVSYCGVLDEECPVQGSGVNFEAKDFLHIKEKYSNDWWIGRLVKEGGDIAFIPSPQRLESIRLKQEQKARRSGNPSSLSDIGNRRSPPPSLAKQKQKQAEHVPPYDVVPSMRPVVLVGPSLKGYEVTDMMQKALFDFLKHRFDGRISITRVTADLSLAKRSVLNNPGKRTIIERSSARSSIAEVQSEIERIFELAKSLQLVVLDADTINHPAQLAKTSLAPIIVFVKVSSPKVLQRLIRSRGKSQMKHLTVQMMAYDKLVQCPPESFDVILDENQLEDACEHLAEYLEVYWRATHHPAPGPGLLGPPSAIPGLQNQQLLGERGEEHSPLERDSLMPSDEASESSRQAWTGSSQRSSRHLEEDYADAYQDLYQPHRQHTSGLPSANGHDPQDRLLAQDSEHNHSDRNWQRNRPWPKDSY
# Sequence (P54289 25-956 partner limits assumed): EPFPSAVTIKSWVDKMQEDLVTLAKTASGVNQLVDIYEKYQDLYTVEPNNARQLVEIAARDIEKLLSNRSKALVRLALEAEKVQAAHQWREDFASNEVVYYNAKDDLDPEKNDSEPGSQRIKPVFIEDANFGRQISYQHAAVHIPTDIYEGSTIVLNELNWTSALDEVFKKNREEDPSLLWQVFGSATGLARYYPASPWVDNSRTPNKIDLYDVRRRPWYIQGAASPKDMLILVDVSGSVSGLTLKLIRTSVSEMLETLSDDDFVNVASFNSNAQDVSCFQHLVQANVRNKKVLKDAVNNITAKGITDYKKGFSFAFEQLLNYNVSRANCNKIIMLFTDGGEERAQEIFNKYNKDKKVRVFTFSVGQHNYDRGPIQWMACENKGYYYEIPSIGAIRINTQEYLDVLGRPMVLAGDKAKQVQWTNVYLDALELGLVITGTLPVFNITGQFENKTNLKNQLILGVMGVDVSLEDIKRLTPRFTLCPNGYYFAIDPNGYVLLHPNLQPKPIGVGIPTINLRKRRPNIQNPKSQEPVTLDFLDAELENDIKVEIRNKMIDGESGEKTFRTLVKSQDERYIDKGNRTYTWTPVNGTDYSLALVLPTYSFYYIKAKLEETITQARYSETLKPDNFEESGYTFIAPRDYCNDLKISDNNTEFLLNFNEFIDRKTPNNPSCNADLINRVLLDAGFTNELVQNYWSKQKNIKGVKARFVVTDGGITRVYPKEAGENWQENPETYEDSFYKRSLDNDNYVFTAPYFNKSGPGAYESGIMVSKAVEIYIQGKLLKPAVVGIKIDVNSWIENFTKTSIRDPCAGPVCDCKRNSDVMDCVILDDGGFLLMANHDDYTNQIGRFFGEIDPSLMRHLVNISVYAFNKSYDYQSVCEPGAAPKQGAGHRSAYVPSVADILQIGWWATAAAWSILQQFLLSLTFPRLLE
# Sequence (P54289 957-1103 partner limits assumed): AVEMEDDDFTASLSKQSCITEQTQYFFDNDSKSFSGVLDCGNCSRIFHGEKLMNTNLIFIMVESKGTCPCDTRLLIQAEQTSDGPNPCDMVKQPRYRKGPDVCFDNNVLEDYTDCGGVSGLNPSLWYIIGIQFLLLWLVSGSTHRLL
# METHOD_DESCRIPTION: VIPR optical membrane potential assay with electrical stimulation, CaV2.2
# CONDITION: Table 9, CaV 2.2 receptors
pIC50: −log10 of the molar value.
Entries and their pIC50 values follow.

Provide pIC50 value for the following compound: `COCCCNC(=O)c1cnc(N2CCN(C(C)=O)CC2)nc1-c1cccc(C)c1` < 5.00

Specify measured pIC50 for `COc1cccc(N(C(=O)c2cnc(N3CCCCC3)nc2-c2ccccc2F)C(C)C)c1` . 5.00 to 5.70

Please look at this compound and report its pIC50: CCC1CCC(C)N(C(=O)c2cnc(N(C)CC)nc2-c2ccccc2F)C1 (centres unmarked) 5.00 to 5.70
